- Test system: MDA-MB-435
- experimental.protocol: Cancer cell growth inhibition, MDA-MB-435
- Assay type: cell-based
- settings: Homo sapiens; Melanoma, MDA-MB-435, cell viability, 72 h
pEC50: −log10 of the molar value.
quantity: pEC50

Please review the entries below; each comes with its answer.
For COc1cc(OC)c2c(-c3ccc(OC(C)=O)c(OC(C)=O)c3)cn(CC(=O)c3ccc(OC(C)=O)c(OC(C)=O)c3)c2c1 , what is its reported pEC50?
4.64

Item: COc1cc(OC)c2c(-c3ccc(O)c(O)c3O)cn(CC(=O)c3ccc(O)c(O)c3O)c2c1
4.96

(P) COc1cc(OC)c2c(-c3ccc(O)cc3)cn(CC(=O)c3ccc(O)cc3)c2c1
(Q) COc1ccc2c(-c3ccc(O)c(O)c3)cn(CC(=O)c3ccc(O)c(O)c3)c2c1
(R) COc1cc(OC)c2c(-c3ccc(O)c(O)c3)cn(CC(=O)c3ccc(O)c(O)c3)c2c1
Order the records by pEC50, with each subsequent value no larger than the one before. Write the labels out in the order the request specifies.
P, Q, R

###

- Tested on: A-431
- experimental.protocol: Cancer cell growth inhibition, A-431
- Format: cell-based
- settings: Homo sapiens; Epidermoid, A-431, cell viability, 72 h
- Source text: Cell culture-based assays were used to evaluate the ability of compounds of the invention to inhibit cancer cell growth inhibition. Cells were obtained from the American Type Culture Collection (ATCC) and European Collection of Cell Cultures (ECACC). Cells were thawed in their appropriate media plus supplements (see table below). […] Prior to seeding at defined cell concentration, cells were recovered in medium, centrifuged and taken up in medium, and counted. […]
quantity: EC50 (µM)

Worked examples, 3 molecules total:
What value of measured EC50 is listed for COc1cc(OC)c2c(-c3ccc(O)cc3)cn(CC(=O)c3ccc(O)cc3)c2c1 [Example 6] ?
11

Repeat with COc1ccc2c(-c3ccc(O)c(O)c3)cn(CC(=O)c3ccc(O)c(O)c3)c2c1 [Example 4]
30

Further, for O=C(Cn1cc(-c2ccc(O)cc2)c2c(F)cc(F)cc21)c1ccc(O)cc1 [Example 16] ?
66

(A) COc1cc(OC)c2c(-c3ccc(OC(C)=O)c(OC(C)=O)c3)cn(CC(=O)c3ccc(OC(C)=O)c(OC(C)=O)c3)c2c1 [Example 30]
(B) COc1cc(OC)c2c(-c3ccc(O)c(O)c3)cn(CC(=O)c3ccc(O)c(O)c3)c2c1 [Example 8]
Lab notebook, comparison: A versus B , higher EC50 goes to which? Please indicate the selected item by its label.
A

###

- Tested on: U-87MG
- experimental.protocol: Cancer cell growth inhibition, U-87MG
- Type: cell-based
- settings: Homo sapiens, Brain, cell viability, 72 h
pEC50: −log10 of the molar value.
quantity: pEC50

Known results for molecules:
Field request: pEC50 | item: COc1cc(OC)c2c(-c3ccc(O)c(O)c3O)cn(CC(=O)c3ccc(O)c(O)c3O)c2c1 [Example 11]
4.30

Thanks! And COc1ccc2c(-c3ccc(O)c(O)c3)cn(CC(=O)c3ccc(O)c(O)c3)c2c1 [Example 4] ?
4.70

Please do the same for O=C(Cn1cc(-c2ccc(O)cc2)c2c(F)cc(F)cc21)c1ccc(O)cc1 [Example 16] as well.
4.02

(I) COc1cc(OC)c2c(-c3ccc(OC(C)=O)c(OC(C)=O)c3)cn(CC(=O)c3ccc(OC(C)=O)c(OC(C)=O)c3)c2c1 [Example 30]
(II) COc1cc(OC)c2c(-c3ccc(O)cc3)cn(CC(=O)c3ccc(O)cc3)c2c1 [Example 6]
(III) COc1cc(OC)c2c(-c3ccc(O)c(O)c3)cn(CC(=O)c3ccc(O)c(O)c3)c2c1 [Example 8]
Parameters: sort_field (pEC50), sort_dir (desc). Sort the labels as requested; that list is your answer.
II, III, I
(II: 4.89, III: 4.66, I: 4.12)
